Molecular target: Receptor-interacting serine/threonine-protein kinase 2 (Homo sapiens) (UniProt O43353)
Sequence (O43353 whole entry): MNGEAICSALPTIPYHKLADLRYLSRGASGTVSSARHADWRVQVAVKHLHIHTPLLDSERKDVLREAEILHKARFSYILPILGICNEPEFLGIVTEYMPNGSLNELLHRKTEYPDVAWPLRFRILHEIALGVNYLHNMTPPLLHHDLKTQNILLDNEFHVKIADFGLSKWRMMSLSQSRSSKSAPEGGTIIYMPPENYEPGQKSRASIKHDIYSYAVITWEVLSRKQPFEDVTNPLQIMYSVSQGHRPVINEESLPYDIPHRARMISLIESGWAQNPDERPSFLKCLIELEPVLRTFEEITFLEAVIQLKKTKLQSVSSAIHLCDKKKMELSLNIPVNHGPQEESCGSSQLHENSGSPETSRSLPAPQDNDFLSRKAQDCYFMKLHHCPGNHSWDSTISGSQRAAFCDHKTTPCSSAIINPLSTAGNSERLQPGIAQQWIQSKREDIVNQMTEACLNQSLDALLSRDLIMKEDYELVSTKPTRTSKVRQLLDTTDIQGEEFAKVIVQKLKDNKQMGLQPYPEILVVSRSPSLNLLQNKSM
Test: Inhibition of RIP2 expressed in Escherichia coli or baculovirus-infected insect cells at 400 uM by fluorescence polarization assay
Some compounds, each annotated with its measured inhibition.
Please give a number only; it is taken to be in %.

Example entries and their recorded answers appear below.
{"smiles-repr": "c1ccc(Nc2ncccn2)cc1", "unit-name": "%", "inhibition": 24}
{"smiles-repr": "Nc1n[nH]c2ncccc12", "unit-name": "%", "inhibition": 10}

Item: c1cnc2[nH]ccc2c1 Test system: Receptor-interacting serine/threonine-protein kinase 2 (Homo sapiens) (UniProt O43353) Read-out: inhibition Value: ?
5

Item: Cc1ccc(C(=O)NC2CC2)cc1F Test system: Receptor-interacting serine/threonine-protein kinase 2 (Homo sapiens) (UniProt O43353) Read-out: inhibition Value: ?
7

Item: O=C(Nc1ccccc1)Nc1cccc(C(F)(F)F)c1 Test system: Receptor-interacting serine/threonine-protein kinase 2 (Homo sapiens) (UniProt O43353) Read-out: inhibition Value: ?
0

Item: Cc1ccc(NC(=O)Nc2cc(C(C)(C)C)nn2-c2ccccc2)cc1 Test system: Receptor-interacting serine/threonine-protein kinase 2 (Homo sapiens) (UniProt O43353) Read-out: inhibition Value: ?
0

Item: Cc1ccc(NC(=O)Nc2cccc(C(F)(F)F)c2)cc1 Test system: Receptor-interacting serine/threonine-protein kinase 2 (Homo sapiens) (UniProt O43353) Read-out: inhibition Value: ?
1

Item: Nc1ccc2ncc(-c3ccccc3)n2n1 Test system: Receptor-interacting serine/threonine-protein kinase 2 (Homo sapiens) (UniProt O43353) Read-out: inhibition Value: ?
69

Item: c1ccc2[nH]ncc2c1 Test system: Receptor-interacting serine/threonine-protein kinase 2 (Homo sapiens) (UniProt O43353) Read-out: inhibition Value: ?
0

Every entry's value here was drawn from ChEMBL document CHEMBL1817560.
